Molecular target: LepB (Mycobacterium tuberculosis, UniProt P9WKA1)
Construct: we used purified membrane fractions to develop an in vitro assay for signal peptide cleavage; Triton X-114 membrane fraction
Sequence (P9WKA1 1-294): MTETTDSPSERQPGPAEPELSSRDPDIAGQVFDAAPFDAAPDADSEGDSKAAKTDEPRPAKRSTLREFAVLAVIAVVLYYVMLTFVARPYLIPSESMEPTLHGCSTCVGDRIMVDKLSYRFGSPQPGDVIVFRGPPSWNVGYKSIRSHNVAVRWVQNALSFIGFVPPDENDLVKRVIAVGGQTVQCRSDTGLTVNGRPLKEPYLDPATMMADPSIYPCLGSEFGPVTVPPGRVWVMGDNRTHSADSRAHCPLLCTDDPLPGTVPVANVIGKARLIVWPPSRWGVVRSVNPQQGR
Assay: LepB membrane assay (fluorogenic signal peptide cleavage by cell membrane fraction)
Details: M. tuberculosis H37Rv cell membrane fraction, 2 μM peptide substrate, 4 h at 37 °C
pIC50: −log10 of the molar value.

MOLECULE: C/C(=N\NC(=O)c1ccoc1C)c1ccccn1 [Compound 39]
EXPERIMENTAL_SYSTEM: LepB (Mycobacterium tuberculosis, UniProt P9WKA1)
pIC50: < 3.70
--
MOLECULE: Cc1cc(C)nc(-n2nc(C)c(Oc3ccccc3O)c2C)n1 [Compound 44]
EXPERIMENTAL_SYSTEM: LepB (Mycobacterium tuberculosis, UniProt P9WKA1)
pIC50: < 3.70
--
MOLECULE: Cc1cc(C)nc(NNC(=O)c2ccccn2)n1 [Compound 57]
EXPERIMENTAL_SYSTEM: LepB (Mycobacterium tuberculosis, UniProt P9WKA1)
pIC50: 4.19
--
MOLECULE: CCOC(=O)CN1C(=O)/C(=N\NC(=O)c2ccccn2)c2ccccc21 [Compound 14]
EXPERIMENTAL_SYSTEM: LepB (Mycobacterium tuberculosis, UniProt P9WKA1)
pIC50: < 3.70
--
MOLECULE: Cc1ccc(Nc2nc(N/N=C/c3ccccc3O)nc(N3CCOCC3)n2)c(Br)c1 [Compound 9]
EXPERIMENTAL_SYSTEM: LepB (Mycobacterium tuberculosis, UniProt P9WKA1)
pIC50: < 3.70
--
MOLECULE: C/C(=N\Nc1nc(C)cc(C)n1)c1ccco1 [Compound 20]
EXPERIMENTAL_SYSTEM: LepB (Mycobacterium tuberculosis, UniProt P9WKA1)
pIC50: 4.13
--
MOLECULE: COc1ccc(Nc2nc(NCc3ccco3)nc(N/N=C/c3ccccc3O)n2)cc1 [Compound 10]
EXPERIMENTAL_SYSTEM: LepB (Mycobacterium tuberculosis, UniProt P9WKA1)
pIC50: < 3.70
--
MOLECULE: Cc1ccc2cc(C)c(N/N=C/c3cc(Br)ccc3O)nc2c1 [Compound 5]
EXPERIMENTAL_SYSTEM: LepB (Mycobacterium tuberculosis, UniProt P9WKA1)
pIC50: < 3.70
--
MOLECULE: N=C(N/N=C/c1cc([N+](=O)[O-])ccc1O)c1ccccn1 [Compound 16]
EXPERIMENTAL_SYSTEM: LepB (Mycobacterium tuberculosis, UniProt P9WKA1)
pIC50: 3.92

###

Target: LepB (Mycobacterium tuberculosis, UniProt P9WKA1)
Construct: we used purified membrane fractions to develop an in vitro assay for signal peptide cleavage; Triton X-114 membrane fraction
Sequence (P9WKA1 1-294): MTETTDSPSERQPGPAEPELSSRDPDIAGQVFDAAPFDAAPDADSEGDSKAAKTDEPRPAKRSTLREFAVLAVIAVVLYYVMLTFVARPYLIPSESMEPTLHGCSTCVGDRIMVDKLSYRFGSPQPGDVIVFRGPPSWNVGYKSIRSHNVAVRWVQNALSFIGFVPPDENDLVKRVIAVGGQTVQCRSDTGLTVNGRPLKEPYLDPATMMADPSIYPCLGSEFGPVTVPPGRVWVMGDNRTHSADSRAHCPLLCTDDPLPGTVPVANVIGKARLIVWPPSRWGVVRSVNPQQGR
Assay: LepB membrane assay (fluorogenic signal peptide cleavage by cell membrane fraction)
Conditions: M. tuberculosis H37Rv cell membrane fraction, 2 μM peptide substrate, 4 h at 37 °C
MEASUREMENT_TYPE: IC50

SMILES_REPRESENTATION: O=C(N/N=C/c1cccc2cccnc12)c1ccn(Cc2ccc(Cl)cc2Cl)n1
REPORTED_VALUE: > 200 µM
//
SMILES_REPRESENTATION: C/C(=N\Nc1nc(C)cc(C)n1)c1ccccn1
REPORTED_VALUE: 39 µM
//
SMILES_REPRESENTATION: Cc1cc(C)nc(-n2nc(C)cc2C)n1
REPORTED_VALUE: > 200 µM

###

Listing of entries alongside the reported CC50.
test: in vitro; format: cell-based, African green monkey; conditions: African green monkey

SMILES_REPRESENTATION: Cc1cnn(-c2cc(N/N=C/c3ccccc3O)ncn2)c1
QUAL: =
CC50 [µM]: 9.2
//
SMILES_REPRESENTATION: C/C(=N\Nc1nc(C)cc(C)n1)c1cccc(O)c1
QUAL: >
CC50 [µM]: 100
//
SMILES_REPRESENTATION: O=C(N/N=C/c1cccc2cccnc12)c1ccn(Cc2ccc(Cl)cc2)n1
QUAL: =
CC50 [µM]: 34
//
SMILES_REPRESENTATION: C/C(=N\NC(=O)c1ccc(N2CCCC2=O)cc1)c1ccccn1
QUAL: =
CC50 [µM]: 6.1
//
SMILES_REPRESENTATION: Cc1ccn(-c2ccc(C(=O)O)cc2)n1
QUAL: >
CC50 [µM]: 100
//
SMILES_REPRESENTATION: Cc1nc2ccccc2nc1N/N=C/c1ccc(O)c(C)c1O
QUAL: =
CC50 [µM]: 8.7
//
SMILES_REPRESENTATION: C/C(=N\NC(=O)c1ccc(Br)o1)c1ccccn1
QUAL: =
CC50 [µM]: 0.6
//
SMILES_REPRESENTATION: C/C(=N\NC(=O)c1cc(Br)ccc1O)c1ccccn1
QUAL: =
CC50 [µM]: 5.4
//
SMILES_REPRESENTATION: Cc1cc(C)nc(NN=C(c2ccccc2)c2ccccc2)n1
QUAL: =
CC50 [µM]: 0.1
//
SMILES_REPRESENTATION: Cc1cc(C)nc(-n2nc(C)cc2C)n1
QUAL: >
CC50 [µM]: 100
//
SMILES_REPRESENTATION: CN(Cc1ccn(C)n1)C(=O)c1ccn(-c2ccc([N+](=O)[O-])cc2)n1
QUAL: >
CC50 [µM]: 100
//
SMILES_REPRESENTATION: Cc1cc(C)nc(NNC(=O)c2ccccn2)n1
QUAL: =
CC50 [µM]: 32
//
SMILES_REPRESENTATION: Cc1ccc(C(N)=O)cc1-n1ccc(-c2cccnc2)n1
QUAL: >
CC50 [µM]: 100
//
SMILES_REPRESENTATION: O=C(N/N=C/c1cccc2cccnc12)c1ccn(Cc2ccc(Cl)cc2Cl)n1
QUAL: =
CC50 [µM]: 21

###

experiment: in vitro; format: cell-based, African green monkey; details: African green monkey
Listing of entries alongside the reported CC50.

MOLECULE: C/C(=N\Nc1nc(C)cc(C)n1)c1cccs1
CC50: > 100 µM
//
MOLECULE: Cc1ccc(-c2cc(C(=O)N/N=C/c3ccccn3)[nH]n2)cc1
CC50: 63 µM
//
MOLECULE: Cc1ccc(C(N)=O)cc1-n1ccc(-c2cnccn2)n1
CC50: > 100 µM
//
MOLECULE: C/C(=N\NC(=S)Nc1cccc(C)c1)c1ccccc1O
CC50: 11 µM
//
MOLECULE: N=C(N/N=C/c1cccc([N+](=O)[O-])c1)c1ccccn1
CC50: > 100 µM
//
MOLECULE: C/C(=N\NS(=O)(=O)c1ccccc1)c1ccccn1
CC50: > 100 µM
//
MOLECULE: CC(O)c1nc2cc(-n3ccc(-c4cnccn4)n3)ccc2[nH]1 (centres unmarked)
CC50: > 100 µM
//
MOLECULE: C/C(=N\NC(=O)c1ccoc1C)c1ccccn1
CC50: 3.3 µM
//
MOLECULE: C/C(=N\Nc1nc(C)cc(C)n1)c1ccccn1
CC50: 2.3 µM
//
MOLECULE: C/C(=N\Nc1nc(C)cc(C)n1)c1ccco1
CC50: > 100 µM
//
MOLECULE: Oc1ccccc1/C=N/Nc1nc(-c2ccccc2)cs1
CC50: 13 µM
//
MOLECULE: C/C(=N\Nc1nc(C)cc(C)n1)c1ccccc1O
CC50: 67 µM
//
MOLECULE: Cc1ccc2cc(C)c(N/N=C/c3cc(Br)ccc3O)nc2c1
CC50: 5 µM
//
MOLECULE: C/C(=N\NC(=O)C1CC1)c1ccccn1
CC50: 75 µM
//
MOLECULE: COc1ccc(Nc2nc(NCc3ccco3)nc(N/N=C/c3ccccc3O)n2)cc1
CC50: 4.3 µM
//
MOLECULE: CC1=NN(c2nc(C)cc(C)n2)C(=O)C1C (centres unmarked)
CC50: > 100 µM
//
MOLECULE: O=[N+]([O-])c1ccc(O)c(/C=N/Nc2ccccn2)c1
CC50: 2.9 µM
//
MOLECULE: Cc1ccc(Nc2nc(N/N=C/c3ccccc3O)nc(N3CCOCC3)n2)c(Br)c1
CC50: 13 µM
//
MOLECULE: CC(C)=NNc1nc(C)cc(C)n1
CC50: > 100 µM
//
MOLECULE: CSC(=S)N/N=C(\c1ccccc1)c1ccccn1
CC50: 2.4 µM
//
MOLECULE: C/C(=N\NC(=O)C1CCCN(S(=O)(=O)c2ccccc2)C1)c1ccccn1 (centres unmarked)
CC50: 9.5 µM
//
MOLECULE: C/C(=N\Nc1nnc2c(n1)[nH]c1ccc(C)cc12)c1ccccn1
CC50: 1.2 µM
//
MOLECULE: Cc1cc(C)nc(-n2nc(C)c(Oc3ccccc3O)c2C)n1
CC50: > 100 µM
//
MOLECULE: N=C(N/N=C/c1cccc(Cl)c1)c1ccccn1
CC50: 62 µM
//
MOLECULE: OCc1ccccc1-n1ccc(-c2cccnc2)n1
CC50: > 100 µM
//
MOLECULE: CC1=NN(c2nc(C)cc(C)n2)C(=O)C1Cc1ccccc1 (centres unmarked)
CC50: > 100 µM
//
MOLECULE: C/C(=N\Nc1ccccn1)c1ccccn1
CC50: > 100 µM
//
MOLECULE: N=C(N/N=C/c1ccccc1O)c1ccccn1
CC50: > 100 µM
//
MOLECULE: CCOC(=O)CN1C(=O)/C(=N\NC(=O)c2ccccn2)c2ccccc21
CC50: 32 µM
//
MOLECULE: C/C(=N\Nc1nc(C)cc(C)n1)c1ccccc1
CC50: > 100 µM
//
MOLECULE: C/C(=N\NC(N)=S)c1ccccn1
CC50: 22 µM
//
MOLECULE: Cc1cc(C)nc(-n2nc(C)c3c2NC(=O)CC3c2ccccc2)n1 (centres unmarked)
CC50: 66 µM
//
MOLECULE: C/C(=N\NC(=O)c1ccncc1)c1ccccn1
CC50: 10 µM
//
MOLECULE: COc1ccc([N+](=O)[O-])cc1/C=N/NC(=N)c1ccccn1
CC50: > 100 µM
//
MOLECULE: N=C(N/N=C/c1cc([N+](=O)[O-])ccc1O)c1ccccn1
CC50: > 100 µM
//
MOLECULE: Cc1cc(C)nc(-n2nc(C)c(Cc3ccccc3C)c2O)n1
CC50: > 100 µM
//
MOLECULE: Oc1ccc(/C=N/Nc2ccc3ccccc3n2)c(O)c1
CC50: 6.7 µM
//
MOLECULE: C/C(=N\NC(=N)c1ccccn1)c1ccccn1
CC50: 59 µM
//
MOLECULE: Cc1nc2ccccc2nc1N/N=C/c1c(O)ccc2ccccc12
CC50: 5.2 µM
//
MOLECULE: CCOC(=O)c1c(C)nn(-c2nc(C)cc(C)n2)c1N
CC50: > 100 µM
//
MOLECULE: COc1ccc(CC(=O)N/N=C(\C)c2ccccn2)cc1OC
CC50: 12 µM
